System: G. duodenalis BRIS/91/HEPU/1279
experimental.details: Primary Giardia screen at 10 µM (live-cell imaging, automated counting)
Type: cell-based, Giardia duodenalis
measurement.conditions: 48 h, first singlicate assay
Hi! Just check whether % Inhibition n=1 48h is below 10%. Below gives condition met, equal or above gives condition not met.

Cc1cccc(-c2nc3sc(N4CCN(C(=O)NC(C)C)CC4)nn3c2NC(C)(C)C)c1
condition met
Cc1ccc(Nc2cc(N3CCN(S(=O)(=O)c4ccc(C)c(C)c4)CC3)nc(C)n2)cc1
condition not met
O=C(NCCSc1ccc(Cl)cc1)c1cc(S(=O)(=O)N2CCOCC2)c[nH]1
condition met
O=C(Cn1nnc(-c2cccs2)n1)NCc1ccc(Cl)cc1
condition not met
Cc1cccc(N(C)S(=O)(=O)c2cc(-c3ccno3)sc2C)c1
condition met
COc1ccc(S(=O)(=O)N2CC=C(C(=O)Nc3ccc(Cl)cc3)CC2)cc1
condition met
COc1ccccc1-c1cc(C(=O)Nc2sc(Nc3ccccc3)nc2C(N)=O)[nH]n1
condition not met
Cc1cnc(CN2CCOC(CNc3cccnn3)C2)o1 (stereo not drawn)
condition not met

Turning now to a further record.
Task item: Lab note: confirm whether the reported % Inhibition n=1 48h for this compound is below 10%, equality not counting. compound: Cc1cccc(CN2CCc3c(cc(C(=O)NC(C)(C)C)n3C)C2)c1
Reply: condition met

###

Tested on: G. duodenalis BRIS/91/HEPU/1279
experimental.details: Primary Giardia screen at 10 µM (live-cell imaging, automated counting)
Assay type: cell-based, Giardia duodenalis
measurement.conditions: 48 h, first singlicate assay
Consider the following compounds and their measured % Inhibition n=1 48h readings.
Kindly provide the numeric value in % only, without the unit symbol.

O=C(c1ccoc1)N1CCC(Oc2nccnc2N2CCc3ccccc32)C1 (stereo not shown)
22.8

Task item: Quick check: % Inhibition n=1 48h of Cc1cc(C)c(S(=O)(=O)N2CCc3[nH]cnc3C2)cc1C ?
Reply: 0.0

Task item: Quick check: % Inhibition n=1 48h of Cc1sc2ccn(CC(C)C)c(=O)c2c1C(=O)NCCN1CCCCC1 ?
Reply: 23.1

Task item: Quick check: % Inhibition n=1 48h of CCOC(=O)N1CCN(c2nc(-c3cccs3)cc(C(F)(F)F)n2)CC1 ?
Reply: 21.6

###

Consider the following compounds and their measured % Inhibition n=1 48h readings.
Test system: G. duodenalis BRIS/91/HEPU/1279
experimental.details: Primary Giardia screen at 10 µM (live-cell imaging, automated counting)
Type: cell-based, Giardia duodenalis
measurement.conditions: 48 h, first singlicate assay
Kindly provide the numeric value in % only, without the unit symbol.

Task item: Enter reported % Inhibition n=1 48h observed with G. duodenalis BRIS/91/HEPU/1279 for CC(=O)c1c(C)[nH]c(C(=O)Nc2nc(-c3ccco3)c(-c3ccco3)s2)c1C
Reply: 59.6

Task item: Enter reported % Inhibition n=1 48h observed with G. duodenalis BRIS/91/HEPU/1279 for O=C(Nc1ccc2c(c1)OCO2)C1CCN(Cc2nnnn2-c2ccccc2)CC1
Reply: 4.9

Task item: Enter reported % Inhibition n=1 48h observed with G. duodenalis BRIS/91/HEPU/1279 for CCCCN(CCCNC(=O)c1c(C)oc2nc[nH]c(=O)c12)Cc1ccccc1
Reply: 16.8

Task item: Enter reported % Inhibition n=1 48h observed with G. duodenalis BRIS/91/HEPU/1279 for Cc1ccc(-n2nc(N3CCC(C(=O)NCC4CCCO4)CC3)ccc2=O)cc1Cl (stereo not drawn)
Reply: 0.0

Task item: Enter reported % Inhibition n=1 48h observed with G. duodenalis BRIS/91/HEPU/1279 for CCCCS(=O)(=O)N1CCC2(CC1)CC2c1nc(-c2cccc(Cl)c2)no1 (stereo not drawn)
Reply: 0.0

Task item: Enter reported % Inhibition n=1 48h observed with G. duodenalis BRIS/91/HEPU/1279 for CC(=O)Nc1nsc(N2CCCC(C(=O)NCc3ccccc3Cl)C2)n1 (stereo not drawn)
Reply: 5.9

Task item: Enter reported % Inhibition n=1 48h observed with G. duodenalis BRIS/91/HEPU/1279 for Cc1ccnc(Nc2nc(C)c(C(=O)NC3CC3)s2)c1
Reply: 13.3

Task item: Enter reported % Inhibition n=1 48h observed with G. duodenalis BRIS/91/HEPU/1279 for CC(=O)Oc1ccc(C(=O)Nc2ccc3nc(-c4ccc(Cl)cc4)oc3c2)cc1
Reply: 0.0

Task item: Enter reported % Inhibition n=1 48h observed with G. duodenalis BRIS/91/HEPU/1279 for CC1CCC(NC(=O)c2ccc(-c3noc(C4CCN(C(=O)c5ccccc5)CC4)n3)cc2)CC1 (stereo not drawn)
Reply: 0.0

Task item: Enter reported % Inhibition n=1 48h observed with G. duodenalis BRIS/91/HEPU/1279 for CSc1ccc(NC(=O)c2cn(C)c3ncccc23)cc1
Reply: 9.5
